Catalogue of viability, T/C values
- System: 624824-186-R-J2-PDC multicell spheroids, viability
- method: Anticancer human tumor 624824-186-R-J2-PDC patient-derived colon adenocarcinoma cell line growth inhibition [PI3K]
- conditionDetails: second compound 0.01 µM; first compound 0.316 µM; active compounds read low
Unit % implied. Number only.

{"compound": "CC(C)NCC(C(=O)N1CCN(c2ncnc3c2C(C)CC3O)CC1)c1ccc(Cl)cc1 (centres undefined) + COc1c(OCCCN2CCOCC2)ccc2c3n(c(=NC(=O)c4cnc(N)nc4)nc12)CCN3", "assaySystem": "624824-186-R-J2-PDC multicell spheroids, viability", "recordedMeasurement": 85.7}
{"compound": "Cn1ncc(Cl)c1-c1cc(C(=O)NC(CN)Cc2cccc(F)c2)sc1Cl (centres undefined) + CC(Nc1ccc2c(c1)OCCn1cc(N3C(=O)OCC3C(F)F)nc1-2)C(N)=O", "assaySystem": "624824-186-R-J2-PDC multicell spheroids, viability", "recordedMeasurement": 70.9}
{"compound": "CC(C)NCC(C(=O)N1CCN(c2ncnc3c2C(C)CC3O)CC1)c1ccc(Cl)cc1 (centres undefined) + CC(Nc1ccc2c(c1)OCCn1cc(N3C(=O)OCC3C(F)F)nc1-2)C(N)=O", "assaySystem": "624824-186-R-J2-PDC multicell spheroids, viability", "recordedMeasurement": 72.1}

# viability, T/C lookup, item CCCS(=O)(=O)Nc1ccc(F)c(C(=O)c2c[nH]c3ncc(-c4ccc(Cl)cc4)cc23)c1F + CC(Nc1ccc2c(c1)OCCn1cc(N3C(=O)OCC3C(F)F)nc1-2)C(N)=O
73.6

###

- Tested on: 624824-186-R-J2-PDC multicell spheroids, viability
- method: Anticancer human tumor 624824-186-R-J2-PDC cell line growth inhibition [PI3K];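 note: spheroids exposed to agents for 7 days before viability read; 100% = DMSO vehicle treated spheroids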
- conditionDetails: second compound 3.16 µM; first compound 3.16 µM; active compounds read low
- Source text: Combinatorial screen of targeted agents with the PI3K inhibitors inavolisib, alpelisib, duvelisib, and copanlisib in multi-cell type tumor spheroids A high-throughput screen of multi-cell type tumor spheroids was designed to identify active combinations of targeted small molecules and PI3K pathway inhibitors. […] Compounds. […] If the clinical Cmax for an agent had not been determined, the highest concentration tested was 10 microM. […]
measurementType: viability, T/C

{"compound": "CC1(C)CCC(Nc2ncc(C(F)(F)F)c(-c3c[nH]c4c(P(C)(C)=O)c(C#N)ccc34)n2)CN1 (centres undefined) + CC(Nc1ncnc2nc[nH]c12)c1cc2cccc(Cl)c2c(=O)n1-c1ccccc1", "recordedMeasurement": "47.8%"}
{"compound": "CNC(=O)c1ccc(N2C(=S)N(c3ccc(C#N)c(C(F)(F)F)c3)C(=O)C2(C)C)cc1F + Cc1nc(NC(=O)N2CCCC2C(N)=O)sc1-c1ccnc(C(C)(C)C(F)(F)F)c1", "recordedMeasurement": "101%"}
{"compound": "CC(C)NCC(C(=O)N1CCN(c2ncnc3c2C(C)CC3O)CC1)c1ccc(Cl)cc1 (centres undefined) + CC(Nc1ncnc2nc[nH]c12)c1cc2cccc(Cl)c2c(=O)n1-c1ccccc1", "recordedMeasurement": "88.1%"}
{"compound": "C[C@@H](NC(=O)c1ncnc(N)c1Cl)c1ncc(C(=O)Nc2cc(C(F)(F)F)c(Cl)cn2)s1 + CC(Nc1ncnc2nc[nH]c12)c1cc2cccc(Cl)c2c(=O)n1-c1ccccc1", "recordedMeasurement": "54.7%"}
{"compound": "C[C@@H](NC(=O)c1ncnc(N)c1Cl)c1ncc(C(=O)Nc2cc(C(F)(F)F)c(Cl)cn2)s1 + Cc1nc(NC(=O)N2CCCC2C(N)=O)sc1-c1ccnc(C(C)(C)C(F)(F)F)c1", "recordedMeasurement": "58.1%"}

# viability, T/C lookup, item C=CC(=O)N1CCN(c2nc(=O)n(-c3c(C)ccnc3C(C)C)c3nc(-c4c(O)cccc4F)c(F)cc23)C(C)C1 (centres undefined) + CC(Nc1ncnc2nc[nH]c12)c1cc2cccc(Cl)c2c(=O)n1-c1ccccc1
85.5%

# viability, T/C lookup, item CC1(C)CCC(CN2CCN(c3ccc(C(=O)NS(=O)(=O)c4ccc(NCC5CCOCC5)c([N+](=O)[O-])c4)c(Oc4cnc5[nH]ccc5c4)c3)CC2)=C(c2ccc(Cl)cc2)C1 + Cc1nc(NC(=O)N2CCCC2C(N)=O)sc1-c1ccnc(C(C)(C)C(F)(F)F)c1
83.6%

# viability, T/C lookup, item CC(C)NCC(C(=O)N1CCN(c2ncnc3c2C(C)CC3O)CC1)c1ccc(Cl)cc1 (centres undefined) + Cc1nc(NC(=O)N2CCCC2C(N)=O)sc1-c1ccnc(C(C)(C)C(F)(F)F)c1
68%

# viability, T/C lookup, item CCCS(=O)(=O)Nc1ccc(F)c(C(=O)c2c[nH]c3ncc(-c4ccc(Cl)cc4)cc23)c1F + CC(Nc1ncnc2nc[nH]c12)c1cc2cccc(Cl)c2c(=O)n1-c1ccccc1
109%

Reference source for all entries: PubChem BioAssay AID1963975
